Molecular target: human A1 receptor (Homo sapiens)
Sequence (P30542 whole entry): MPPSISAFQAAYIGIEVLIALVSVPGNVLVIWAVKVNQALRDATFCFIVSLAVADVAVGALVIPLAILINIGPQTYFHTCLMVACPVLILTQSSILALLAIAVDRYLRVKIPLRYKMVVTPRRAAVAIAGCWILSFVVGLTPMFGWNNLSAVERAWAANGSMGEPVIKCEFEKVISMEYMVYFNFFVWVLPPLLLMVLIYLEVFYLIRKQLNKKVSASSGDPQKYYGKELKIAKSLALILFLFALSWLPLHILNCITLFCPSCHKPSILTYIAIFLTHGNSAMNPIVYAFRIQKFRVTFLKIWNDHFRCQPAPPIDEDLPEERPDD
Test: Adenosine antagonistic activity: radioligand binding with [3H]DPCPX (4.5 nM)
measured_property: log10(Ki) (log10 of the value in nM)
Heads up: the numbers are on a log10 scale; they represent Ki in nM.

Entry CC(C)n1cc(-c2cc(Cl)c(N)nc2-c2ccccc2)cc(Cl)c1=O [Example 119] : log10(Ki) on human A1 receptor (Homo sapiens) = 0.30

Entry CC(C)n1nc(-c2cc(C#N)c(N)nc2-c2ccccc2)ccc1=O [Example 3] : log10(Ki) on human A1 receptor (Homo sapiens) = -0.25

Entry CC(C)n1nc(-c2cc(Cl)c(N)nc2-c2ccc(F)cc2)ccc1=O [Example 74] : log10(Ki) on human A1 receptor (Homo sapiens) = 0.81

Entry CC(C)n1nc(-c2cc(Br)c(N)nc2-c2ccccc2)ccc1=O [Example 33] : log10(Ki) on human A1 receptor (Homo sapiens) = -0.39

Entry CC(C)n1nc(-c2cc(NC(=O)c3ccccc3)cnc2-c2ccccc2)ccc1=O [Example 27] : log10(Ki) on human A1 receptor (Homo sapiens) = -0.51

Entry CC(C)n1nc(-c2cc(-c3nc(-c4ccccc4)cs3)c(N)nc2-c2ccccc2)ccc1=O [Example 40] : log10(Ki) on human A1 receptor (Homo sapiens) = 0.65

Entry CC(C)n1nc(-c2cc(-c3ccn[nH]3)cnc2-c2ccccc2)ccc1=O [Example 24] : log10(Ki) on human A1 receptor (Homo sapiens) = -0.34

Entry CC(C)n1nc(-c2cc(O)cnc2-c2ccccc2)ccc1=O [Example 53] : log10(Ki) on human A1 receptor (Homo sapiens) = -0.37
